# tested_target: rhAChE (recombinant human acetylcholinesterase) (Homo sapiens, UniProt P22303 32-614)
# Sequence (P22303 32-614): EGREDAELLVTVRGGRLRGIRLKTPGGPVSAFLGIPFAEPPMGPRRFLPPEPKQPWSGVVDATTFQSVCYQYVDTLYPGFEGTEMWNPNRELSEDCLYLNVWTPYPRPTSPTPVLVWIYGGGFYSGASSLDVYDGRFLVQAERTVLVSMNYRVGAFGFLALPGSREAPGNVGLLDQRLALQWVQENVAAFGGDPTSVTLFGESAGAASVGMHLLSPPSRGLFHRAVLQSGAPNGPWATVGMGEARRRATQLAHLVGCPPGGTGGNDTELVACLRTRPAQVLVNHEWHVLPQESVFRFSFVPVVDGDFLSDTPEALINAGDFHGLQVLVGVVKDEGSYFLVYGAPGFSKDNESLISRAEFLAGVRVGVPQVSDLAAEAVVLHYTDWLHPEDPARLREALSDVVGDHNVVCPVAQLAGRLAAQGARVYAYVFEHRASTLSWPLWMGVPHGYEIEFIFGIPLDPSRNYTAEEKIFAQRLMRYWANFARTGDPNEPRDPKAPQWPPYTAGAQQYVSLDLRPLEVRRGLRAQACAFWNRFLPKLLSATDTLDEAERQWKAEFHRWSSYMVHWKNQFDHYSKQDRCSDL
# protocol_details: indirect ELISA
value_type: Kd (nM)
Please state the figure in nM; there is no need to write the unit.

What value of measured Kd is listed for Ob2 (ssDNA) DNA: TAATACGACTCACTATAGCAATGGTACGGTACTTCCCTTCGAAAACACCCTGCCCCTCACACAAAAGTGCACGCTACTTTGCTAA ?
17.1
